- Assay Comment: NCI Yeast Anticancer Drug Screen. Data for the sgs1 mgt1 strain (AID 161);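 also: 0% = growth of cultures given vehicle only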
- Measurement Conditions: S. cerevisiae sgs1 mgt1 strain, at 50.0 µM, active compounds read high
This is part of a sample that, as a whole, favours compounds with a hit. Of some 79,000 tested, about 15% had one in any assay.
Observation Type: growth inhibition (%)
Give bare numbers, in %.

A selection of reference data follows.
In [3]: df
Out[3]:
                                   molecule   observation_type  observed_value
0  COc1ccc(NC(=O)Nc2ccc(NC(C)=O)cc2)c(OC)c1  growth inhibition            14.5
1         Cc1ccc(S(=O)(=O)N2CCN(C=S)CC2)cc1  growth inhibition            14.2
2                           Cc1cccc(C)c1N=O  growth inhibition           -7.45
3       Cc1ccccc1C(=O)NNC(=O)c1cccc2ccccc12  growth inhibition             7.9
4                 O=C(NCc1ccco1)Nc1ccccc1Cl  growth inhibition            -6.2

List the reported growth inhibition of each molecule below.
1. CCOC(C)Oc1ccccc1 (stereo not drawn)
2. CC(C)(C)OC(=O)NC(CCC(=O)OCc1ccccc1)C(=O)NCCCO (stereo not drawn)
3. COC(=O)/C=C/CCBr
4. CC1=Nc2cc(C)c(C)cc2N2C1=CC1=C(C(=O)c3cc4ccccc4cc3C1=O)C2C (stereo not drawn)
5. CCOC(=O)N(c1ccccc1)c1ccccc1
6. Cc1ccccc1NS(=O)(=O)c1c(N)ncn1C
7. CC(O)COC(C)COC(C)c1ccccc1 (stereo not drawn)
8. Cc1ccccc1S(=O)(=O)OC1NS(=O)(=O)c2ccccc21 (stereo not drawn)

1: 20.4; 2: 8.4; 3: -17.6; 4: 16.2; 5: 18.7; 6: -0.9; 7: -4; 8: -36.9
